Kindly supply the reported log10 ED50 values for the records listed here.
biological target: HLA-A*1101 (human); assay: iTopia affinity;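 also: affinity derived from a titration of eight serial peptide dilutions, each run under the same conditions as the binding screen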
Log scale reminder: ED50 in µM, then log10 taken.

INPUT: # input binder: VQTSRAAAK [cdr2 379-387 VQTSRAAAK] ; wanted: its log10 ED50
OUTPUT: 0.66

INPUT: // query log10 ED50 value for entry LQEIEYLTK [cdr2 60-68 LQEIEYLTK]
OUTPUT: 1.79

INPUT: Recorded log10 ED50 for KEIFSCIKK [cdr2 427-435 KEIFSCIKK] , please?
OUTPUT: 0.85

// for each binder below, give its log10 ED50
1. LTVPESHRK [cdr2 296-304 LTVPESHRK]
2. LQLAAELGK [cdr2 28-36 LQLAAELGK]
3. ASQQKILSL [cdr2 107-113 ASQQKILSL]
4. KQRGISLLH [cdr2 339-347 KQRGISLLH]
5. SPTTPPEYK [cdr2 415-423 SPTTPPEYK]

OUTPUT:
1: 0.68; 2: 0.90; 3: 1.30; 4: 1.34; 5: 1.30
